Recorded parasite growth, % of DMSO control for the following compounds
# test.summary: qHTS profiling of the MIPE4 collection as inhibitors of Plasmodium falciparum (3D7) proliferation (AID 743344);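 also: scaled between DMSO vehicle wells and 0.29 µM artemisinin as full inhibition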
# particulars: P. falciparum 3D7 in erythrocytes, SYBR Green DNA fluorescence, 72 h; at 28.5 µM unless noted
Answer format: numeric, % implied, no suffix.

Request: So what's the measured parasite growth, % of DMSO control for this one? Oc1cc2c(cc1O)C1c3ccc(O)c(O)c3OCC1(O)C2 (centres undefined)
Response: 13

Request: So what's the measured parasite growth, % of DMSO control for this one? CC[C@H]1OC(=O)[C@H](C)[C@@H](O[C@H]2C[C@@](C)(OC)[C@@H](O)[C@H](C)O2)[C@H](C)[C@@H](O[C@@H]2O[C@@H](C)C[C@H](N(C)C)[C@@H]2O)[C@](C)(O)C[C@@H](C)C(=O)[C@H](C)[C@@H](O)[C@]1(C)O
Response: 60.1

Request: So what's the measured parasite growth, % of DMSO control for this one? COc1ccc2c(c1OC)C(=O)OC2[C@H]1c2c(cc3c(c2OC)OCO3)CCN1C (some centres undefined)
Response: 17.1

Request: So what's the measured parasite growth, % of DMSO control for this one? O=C(O)C=Cc1ccc(Cn2ccnc2)cc1
Response: 90.5

* * *

# test.summary: qHTS of pediatric cancer cell lines to identify multiple opportunities for drug repurposing: Confirmatory screen for TC32 cells (AID 1347118);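 also: potency is read from the fitted curve at half-maximal effect; cells exposed to compound for 48 h before the read; nearly all actives have a fitted effect of over 65% in size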
# particulars: TC32 Ewing sarcoma cells viability qHTS; series mostly up to 45.9 µM
Results filed as inconclusive are left out. Activity calls are given as the source filed them. Calls come from the whole dose curve; as a rule, active = well fitted cell-killing curve with a large enough effect; inconclusive = small, poorly fitted or top-dose-only effect; inactive = no such curve, though single readings can be large or run the other way.
Give one outcome, nothing more. List: active, inactive

Examples with answers:
# molecule, label.value
data = [
    ("C=CC(=O)Nc1ccc2ncnc(Nc3ccc(OCc4cccc(F)c4)c(Cl)c3)c2c1", "active"),
    ("COc1cc(O)c2c(c1)C1OC1C[C@H](O)[C@H](O)C(=O)C=CC[C@H](C)OC2=O (stereo partly specified)", "active"),
    ("NC(=O)Nc1sc(-c2ccc(F)cc2)cc1C(N)=O", "active"),
    ("CN[C@@H]1C[C@H]2O[C@@](C)([C@H]1OC)n1c3ccccc3c3c4c(c5c6ccccc6n2c5c31)C(=O)N[C@H]4O", "active"),
]

Now, please, on to the next molecule.
Request: What is the recorded call for this molecule in the test? Cc1ccc([N+](=O)[O-])cc1S(=O)(=O)N(C)N=Cc1cnc2ccc(Br)cn12
Response: active

* * *

# test.summary: Quantitative High-Throughput drug screen in 47 multiple myeloma cell lines against the NCATS MIPE library collection: KMS11_JCRBsus cell viability assay (AID 1919873); also: potency is read from the fitted curve at half-maximal effect; nearly all actives have a fitted effect of over 50% in size
# particulars: KMS11 myeloma viability, CellTiter-Glo ATP luminescence, 48 h; series mostly up to 45.8 µM
Inconclusive results are not listed. Activity calls are given as the source filed them. Calls follow the shape of the dose curve; as a rule, active = well fitted cell-killing curve with a large enough effect; inconclusive = small, poorly fitted or top-dose-only effect, or effect the other way; inactive = no such curve, though single readings can be large or run the other way.
parameter: Potency

Worked set:
# molecule, Potency
measured = [
    ("CCOc1cc2ncc(C#N)c(Nc3ccc(OCc4ccccn4)c(Cl)c3)c2cc1NC(=O)C=CCN(C)C", "14.8 µM (active)"),
    ("CC(C)c1cnn2c(NCc3ccccc3)cc(NCCCCCCN)nc12", "26.4 µM (active)"),
    ("N#CNC(=NCCCCCCOc1ccc(Cl)cc1)Nc1ccncc1", "0.0026 µM (active)"),
    ("CC(C)N1[N]C(=C2C=c3cc(O)ccc3=N2)c2c(N)ncnc21", "0.105 µM (active)"),
]

Request: So what's the measured Potency for this one? Cc1cnn(C)c1C(=O)Nc1cc(Nc2ccc3c(C=Cc4ccccn4)n[nH]c3c2)ccc1F
Response: 11.8 µM (active)

Request: So what's the measured Potency for this one? C[C@H](NC(=O)[C@@H](O)c1cc(F)cc(F)c1)C(=O)N[C@@H]1C(=O)N(C)c2ccccc2-c2ccccc21
Response: 1.87 µM (active)

Request: So what's the measured Potency for this one? OCCNC1CCCc2c1[nH]c1ccc(-c3ccccc3)cc21 (centres undefined)
Response: 2.96 µM (active)

Request: So what's the measured Potency for this one? Cc1ncc(-c2ccnc(Nc3ccc(S(C)(=O)=O)cc3)n2)n1C(C)C
Response: 2.09 µM (active)

Request: So what's the measured Potency for this one? COc1cccc2c1C(=O)c1c(O)c3c(c(O)c1C2=O)C[C@@](O)(C(=O)CO)C[C@@H]3O[C@H]1C[C@H](N)[C@H](OC2CCCCO2)[C@H](C)O1 (some centres undefined)
Response: 2.64 µM (active)

FYI, the data here is from PubChem BioAssay (NCATS).
